- test target: EGFR Del19/T790M/C797S (Homo sapiens, UniProt P00533, C797S/DEL746-750/T790M)
- Sequence (P00533 with tags, fused parts or gaps DEL746-750/T790M/C797S): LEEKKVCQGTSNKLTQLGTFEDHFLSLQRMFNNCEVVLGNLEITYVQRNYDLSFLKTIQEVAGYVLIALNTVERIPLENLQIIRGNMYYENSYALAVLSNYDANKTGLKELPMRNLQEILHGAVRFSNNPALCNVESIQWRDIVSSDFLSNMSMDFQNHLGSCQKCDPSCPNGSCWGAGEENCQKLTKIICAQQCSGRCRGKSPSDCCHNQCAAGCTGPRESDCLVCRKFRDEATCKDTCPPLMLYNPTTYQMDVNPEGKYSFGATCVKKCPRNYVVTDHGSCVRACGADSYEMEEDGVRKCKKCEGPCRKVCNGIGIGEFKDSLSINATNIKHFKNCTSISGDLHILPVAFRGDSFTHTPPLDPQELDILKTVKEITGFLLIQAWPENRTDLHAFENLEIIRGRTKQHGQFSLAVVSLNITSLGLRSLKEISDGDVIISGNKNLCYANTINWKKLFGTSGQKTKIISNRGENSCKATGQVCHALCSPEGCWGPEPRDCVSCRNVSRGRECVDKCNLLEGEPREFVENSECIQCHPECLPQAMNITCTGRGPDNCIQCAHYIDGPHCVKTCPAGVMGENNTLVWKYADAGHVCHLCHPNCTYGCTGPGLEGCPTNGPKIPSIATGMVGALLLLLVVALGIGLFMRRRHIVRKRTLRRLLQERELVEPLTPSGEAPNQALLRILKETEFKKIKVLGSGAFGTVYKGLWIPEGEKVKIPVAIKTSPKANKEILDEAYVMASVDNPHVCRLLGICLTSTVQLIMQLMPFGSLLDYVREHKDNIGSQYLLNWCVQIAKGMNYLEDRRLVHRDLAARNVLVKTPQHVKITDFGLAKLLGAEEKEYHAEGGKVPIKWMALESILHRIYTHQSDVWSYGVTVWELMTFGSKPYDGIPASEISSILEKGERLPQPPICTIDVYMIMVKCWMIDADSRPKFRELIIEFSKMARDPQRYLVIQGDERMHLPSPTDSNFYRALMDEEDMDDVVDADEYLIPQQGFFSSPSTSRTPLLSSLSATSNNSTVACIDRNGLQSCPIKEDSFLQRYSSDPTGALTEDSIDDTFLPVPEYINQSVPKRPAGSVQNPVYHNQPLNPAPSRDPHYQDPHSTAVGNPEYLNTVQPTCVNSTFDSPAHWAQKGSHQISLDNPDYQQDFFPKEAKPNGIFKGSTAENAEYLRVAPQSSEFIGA
- assay info: Biochemical EGFR kinase inhibition assay (Lance Ultra TR-FRET), triple mutant del19/T790M/C797S
- measurement conditions: Km ATP; read-out: IC50 Del19/T790M/C797S (nM) Km ATP
measurement label: IC50 (nM)

Cn1ccc(C#Cc2cnc(Nc3ccnc(-c4cnn(S(=O)(=O)C5CC5)c4)n3)cc2N2CCC(C)(CO)CC2)n1 | 1.2

1. Cn1cc(C#Cc2cnc(Nc3ccnc(-c4cnn(S(=O)(=O)C5CC5)c4)n3)cc2N[C@H]2CCC[C@@H](O)C2)cn1
2. CC(=O)N1CCC(n2cc(C#Cc3cnc(Nc4ccnc(-c5cnn(S(=O)(=O)C6CC6)c5)n4)cc3N3CCC(C)(CO)CC3)cn2)CC1
Dear colleague, could you let me know whether 1 or 2 has the lower recorded IC50? Thanks. Kindly give the label for the entry you pick.
2
(2: 1.1 nM, 1: 1.8 nM)
